Biological target: T1, human CD4 on cells (SKW3 cells; human PBMCs) (human, UniProt P01730 26-458)
T1 construct: whole, on cells; SKW3 CD4 knockout cells served as the negative cell line; also called hCD4
Assay: FACS primary screen, non-clonal hybridoma supernatant, SKW3 vs SKW3 CD4 knockout cells, anti-mouse Fc A647
SKW3 WT vs KO anti-mFc-647 by entry:

{"binder": "75110_07B16A (antibody, IgG1, V domains shown, Tested as non-clonal AlivaMab Mouse Kappa hybridoma supernatant: human variable domains and human kappa, mouse Fc) VH: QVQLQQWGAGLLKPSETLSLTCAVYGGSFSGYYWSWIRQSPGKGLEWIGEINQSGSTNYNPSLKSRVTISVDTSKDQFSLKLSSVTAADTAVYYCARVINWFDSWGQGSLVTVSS VL: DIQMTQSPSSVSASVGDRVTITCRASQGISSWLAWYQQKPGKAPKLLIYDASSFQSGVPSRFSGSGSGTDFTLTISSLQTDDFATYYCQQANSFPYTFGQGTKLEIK", "SKW3 WT vs KO anti-mFc-647 / fold": 11.4}
{"binder": "75110_01K10A (antibody, V domains shown, Tested as non-clonal AlivaMab Mouse Kappa hybridoma supernatant: human variable domains and human kappa, mouse Fc) VH: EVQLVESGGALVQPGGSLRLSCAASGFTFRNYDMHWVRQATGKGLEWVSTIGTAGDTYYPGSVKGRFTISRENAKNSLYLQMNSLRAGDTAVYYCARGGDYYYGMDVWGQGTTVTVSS VL: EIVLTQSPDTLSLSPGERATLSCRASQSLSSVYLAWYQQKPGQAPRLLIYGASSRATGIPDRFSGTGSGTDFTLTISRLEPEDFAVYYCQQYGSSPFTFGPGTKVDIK", "SKW3 WT vs KO anti-mFc-647 / fold": 4.6}
{"binder": "75110_02I16A (antibody, IgG1, V domains shown, Tested as non-clonal AlivaMab Mouse Kappa hybridoma supernatant: human variable domains and human kappa, mouse Fc; also called 75110_02116A) VH: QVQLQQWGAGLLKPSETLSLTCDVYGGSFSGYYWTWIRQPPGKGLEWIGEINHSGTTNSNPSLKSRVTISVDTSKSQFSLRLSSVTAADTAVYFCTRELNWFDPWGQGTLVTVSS VL: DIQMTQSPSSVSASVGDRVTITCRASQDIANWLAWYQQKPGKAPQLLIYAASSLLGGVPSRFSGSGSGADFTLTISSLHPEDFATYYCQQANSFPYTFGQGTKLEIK", "SKW3 WT vs KO anti-mFc-647 / fold": 3}
{"binder": "75110_14P05A (antibody, V domains shown, Tested as non-clonal AlivaMab Mouse Kappa hybridoma supernatant: human variable domains and human kappa, mouse Fc) VH: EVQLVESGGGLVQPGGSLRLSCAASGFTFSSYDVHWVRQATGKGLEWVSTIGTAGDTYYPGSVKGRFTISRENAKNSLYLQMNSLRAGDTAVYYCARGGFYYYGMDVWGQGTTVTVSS VL: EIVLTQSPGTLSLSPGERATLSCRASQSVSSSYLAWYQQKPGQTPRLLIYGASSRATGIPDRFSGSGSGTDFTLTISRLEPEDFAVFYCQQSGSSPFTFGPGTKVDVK", "SKW3 WT vs KO anti-mFc-647 / fold": 4.6}
{"binder": "75110_13P22A (antibody, IgG1, V domains shown, Tested as non-clonal AlivaMab Mouse Kappa hybridoma supernatant: human variable domains and human kappa, mouse Fc) VH: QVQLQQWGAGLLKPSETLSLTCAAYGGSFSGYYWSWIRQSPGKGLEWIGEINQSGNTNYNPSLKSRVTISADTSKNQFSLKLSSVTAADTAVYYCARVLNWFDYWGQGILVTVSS VL: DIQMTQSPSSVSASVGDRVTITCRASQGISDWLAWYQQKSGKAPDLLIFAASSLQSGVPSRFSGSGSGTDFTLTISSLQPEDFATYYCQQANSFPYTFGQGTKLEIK", "SKW3 WT vs KO anti-mFc-647 / fold": 6.4}
{"binder": "75110_04P06A (antibody, IgG1, V domains shown, Tested as non-clonal AlivaMab Mouse Kappa hybridoma supernatant: human variable domains and human kappa, mouse Fc) VH: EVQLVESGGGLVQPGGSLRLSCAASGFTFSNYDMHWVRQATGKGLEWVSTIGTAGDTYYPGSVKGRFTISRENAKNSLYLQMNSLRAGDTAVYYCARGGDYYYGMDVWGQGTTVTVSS VL: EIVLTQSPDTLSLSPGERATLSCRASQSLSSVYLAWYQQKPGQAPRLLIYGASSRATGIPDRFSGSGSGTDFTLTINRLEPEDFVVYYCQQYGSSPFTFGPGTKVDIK", "SKW3 WT vs KO anti-mFc-647 / fold": 3.9}
{"binder": "75110_01J17A (antibody, IgG1, V domains shown, Tested as non-clonal AlivaMab Mouse Kappa hybridoma supernatant: human variable domains and human kappa, mouse Fc) VH: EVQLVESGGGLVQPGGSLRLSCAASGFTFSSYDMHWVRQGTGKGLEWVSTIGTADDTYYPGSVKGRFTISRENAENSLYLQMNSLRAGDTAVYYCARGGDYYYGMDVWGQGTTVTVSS VL: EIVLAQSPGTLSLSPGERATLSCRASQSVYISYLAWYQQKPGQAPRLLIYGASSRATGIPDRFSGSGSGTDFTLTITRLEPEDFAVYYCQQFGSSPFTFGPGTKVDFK", "SKW3 WT vs KO anti-mFc-647 / fold": 4.3}
{"binder": "75110_04G16A (antibody, V domains shown, Tested as non-clonal AlivaMab Mouse Kappa hybridoma supernatant: human variable domains and human kappa, mouse Fc) VH: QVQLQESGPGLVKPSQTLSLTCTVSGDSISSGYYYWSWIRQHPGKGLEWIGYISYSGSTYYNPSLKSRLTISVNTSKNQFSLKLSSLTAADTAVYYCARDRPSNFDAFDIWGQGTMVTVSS VL: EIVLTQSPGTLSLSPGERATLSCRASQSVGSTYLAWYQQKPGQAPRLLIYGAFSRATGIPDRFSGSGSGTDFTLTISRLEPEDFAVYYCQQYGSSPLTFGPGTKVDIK", "SKW3 WT vs KO anti-mFc-647 / fold": 6.3}
{"binder": "75110_06D16A (antibody, V domains shown, Tested as non-clonal AlivaMab Mouse Kappa hybridoma supernatant: human variable domains and human kappa, mouse Fc (detected with anti-mouse Fc)) VH: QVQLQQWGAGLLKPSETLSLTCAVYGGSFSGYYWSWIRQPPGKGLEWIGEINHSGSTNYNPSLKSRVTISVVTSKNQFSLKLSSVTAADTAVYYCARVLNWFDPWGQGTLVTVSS VL: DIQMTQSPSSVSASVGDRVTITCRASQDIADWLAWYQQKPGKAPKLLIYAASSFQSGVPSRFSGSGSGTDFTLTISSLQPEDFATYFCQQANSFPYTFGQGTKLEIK", "SKW3 WT vs KO anti-mFc-647 / fold": 4}
{"binder": "75110_12C19A (antibody, IgG1, V domains shown, Tested as non-clonal AlivaMab Mouse Kappa hybridoma supernatant: human variable domains and human kappa, mouse Fc) VH: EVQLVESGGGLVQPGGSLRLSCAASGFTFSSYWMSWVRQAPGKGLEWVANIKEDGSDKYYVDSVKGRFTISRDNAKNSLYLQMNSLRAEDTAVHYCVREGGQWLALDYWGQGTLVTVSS VL: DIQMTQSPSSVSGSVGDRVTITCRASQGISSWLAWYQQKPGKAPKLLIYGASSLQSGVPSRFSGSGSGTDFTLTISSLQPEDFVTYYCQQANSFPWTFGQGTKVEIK", "SKW3 WT vs KO anti-mFc-647 / fold": 7.2}
{"binder": "75110_13C13A (antibody, IgG1, V domains shown, Tested as non-clonal AlivaMab Mouse Kappa hybridoma supernatant: human variable domains and human kappa, mouse Fc) VH: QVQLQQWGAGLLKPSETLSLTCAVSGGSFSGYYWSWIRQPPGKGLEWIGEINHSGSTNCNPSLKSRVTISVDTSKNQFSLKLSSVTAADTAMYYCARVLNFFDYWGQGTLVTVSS VL: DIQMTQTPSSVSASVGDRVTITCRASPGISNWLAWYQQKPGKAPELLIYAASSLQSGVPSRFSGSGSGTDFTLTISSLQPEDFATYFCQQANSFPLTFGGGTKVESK", "SKW3 WT vs KO anti-mFc-647 / fold": 6.8}
